- experimental_system: VEGF binding to heparin (HS-GAG) (Homo sapiens)
- Construct: purchased Research and Development Systems
- Sequence (P15692 27-191 isoform P15692-4): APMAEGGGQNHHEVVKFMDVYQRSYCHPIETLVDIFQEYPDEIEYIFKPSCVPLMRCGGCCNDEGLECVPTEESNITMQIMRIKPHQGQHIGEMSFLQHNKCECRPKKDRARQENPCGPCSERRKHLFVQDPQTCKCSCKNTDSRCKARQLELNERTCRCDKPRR
- protocol_description: In vitro VEGF to HS-GAG binding assay (ELISA, heparin-BSA coated plate)
- study_conditions: 30 μM
Label 1.0 for high-side inhibition at 30 µM (at or above 50%) and 0.0 for low-side inhibition at 30 µM (below it).

                                    compound  category_label
 0  Cc1ccc(S(=O)(=O)CC(=O)Nc2sc3c(c2-c2nc4ccccc4s2)CCN(C)C3)cc1 [Compound 39]             0.0
 1  O=C(Nc1sc2c(c1-c1nc3ccccc3s1)CCN(Cc1ccccc1)C2)c1cccs1 [Compound 23]             1.0
 2  CN1CCc2c(sc(NC(=O)c3cccc(C(F)(F)F)c3)c2-c2nc3ccccc3s2)C1 [Compound 16]             1.0
 3  O=C(Nc1sc2c(c1-c1nc3ccccc3s1)CCN(Cc1ccccc1)C2)c1ccc(Br)s1 [Compound 24]             1.0
 4  COC(=O)c1ccc(C(=O)Nc2sc3c(c2-c2nc4ccccc4s2)CCN(C(C)C)C3)cc1 [Compound 20]             1.0
 5  CN1CCc2c(sc(NC(=O)CCN3C(=O)c4ccccc4C3=O)c2-c2nc3ccccc3s2)C1 [Compound 6]             0.0
 6  CC(C)(C)C(=O)Nc1sc2c(c1-c1nc3ccccc3s1)CCN(Cc1ccccc1)C2 [Compound 21]             1.0
 7  CCN1CCc2c(sc(NC(=O)CCSc3ccccc3)c2-c2nc3ccccc3s2)C1 [Compound 29]             1.0
 8  CCN1CCc2c(sc(NC(=O)c3ccc(OC)cc3)c2-c2nc3ccccc3s2)C1 [Compound 11]             0.0
 9  CN1CCc2c(sc(NC(=O)c3ccco3)c2-c2nc3ccccc3s2)C1 [Compound 25]             1.0
10  CCOC(=O)N1CCc2c(sc(NC(=O)c3ccccc3)c2-c2nc3ccccc3s2)C1 [Compound 35]             0.0
11  COc1cc2ccccc2cc1C(=O)Nc1sc2c(c1-c1nc3ccccc3s1)CCN(C)C2 [Compound 15]             0.0
12  CSc1ccc(CC(=O)Nc2sc3c(c2-c2nc4ccccc4s2)CCN(C)C3)cc1 [Compound 3]             1.0
13  COc1ccc(C(=O)Nc2sc3c(c2-c2nc4ccccc4s2)CCN(Cc2ccccc2)C3)c(OC)c1 [Compound 13]             1.0

###

- experimental_system: VEGF binding to heparin (HS-GAG) (Homo sapiens)
- Construct: purchased Research and Development Systems
- protocol_description: In vitro VEGF to HS-GAG binding assay (ELISA, heparin-BSA coated plate)
- study_conditions: 30 μM
Label Met for high-side inhibition at 30 µM (at or above 60%) and Not met for low-side inhibition at 30 µM (below it).

>>> print(df.to_string())
                                chem_smiles  category_label
0  CC(C)N1CCc2c(sc(NC(=O)c3ccc(N(C)C)cc3)c2-c2nc3ccccc3s2)C1         Not met
1  CN1CCc2c(sc(NC(=O)CCSc3ccc(F)cc3)c2-c2nc3ccccc3s2)C1             Met
2  CN1CCc2c(sc(NC(=O)c3ccc4ncsc4c3)c2-c2nc3ccccc3s2)C1             Met
3  Cc1ccc(CC(=S)Nc2sc3c(c2-c2nc4ccccc4s2)CCN(C)C3)cc1         Not met
4  CCN1CCc2c(sc(NC(=O)c3ccc(C#N)cc3)c2-c2nc3ccccc3s2)C1             Met
5  CC(C)N1CCc2c(sc(NC(=O)CN3C(=O)CCC3=O)c2-c2nc3ccccc3s2)C1         Not met
6  COc1cccc(OCC(=O)Nc2sc3c(c2-c2nc4ccccc4s2)CCN(C)C3)c1             Met
7  O=C(COc1ccc(Cl)cc1)Nc1sc2c(c1-c1nc3ccccc3s1)CCN(Cc1ccccc1)C2         Not met
